# Species: Homo sapiens
# ASSAY PROTOCOL: Selectivity index, ratio of IC50 for human recombinant MAOA to IC50 for human recombinant MAOB
PROPERTY MEASURED: Ratio IC50

>>> df
              structure_notation  value
0   c1ccc(COc2ccc3c(c2)OCCO3)cc1    215
1   c1ccc(CCOc2ccc3c(c2)OCO3)cc1     26
2  c1ccc(CCOc2ccc3c(c2)OCCO3)cc1    579

I = c1ccc(OCCOc2ccc3c(c2)OCCO3)cc1
II = c1ccc(CCCOc2ccc3c(c2)OCO3)cc1
III = Clc1cccc(COc2ccc3c(c2)OCCO3)c1
Sort ascending by Ratio IC50. Provide your answer as the labels ordered per the instruction.
II, III, I

* * *

# Species on record: Homo sapiens
# ASSAY PROTOCOL: Selectivity index, ratio of IC50 for human recombinant MAOA to IC50 for human recombinant MAOB
PROPERTY MEASURED: Ratio IC50

In [3]: df
Out[3]:
              structure_notation  value
0  Brc1cccc(COc2ccc3c(c2)OCO3)c1    234

a = Clc1cccc(COc2ccc3c(c2)OCO3)c1
b = c1ccc(CCCOc2ccc3c(c2)OCCO3)cc1
c = Brc1cccc(COc2ccc3c(c2)OCCO3)c1
Sort ascending by Ratio IC50. Provide your answer as the labels ordered per the instruction.
b, a, c
(b: 74, a: 209, c: 375)

* * *

# MEASURED TARGET: Amine oxidase [flavin-containing] B (Homo sapiens, UniProt P27338)
# Sequence (P27338 whole entry): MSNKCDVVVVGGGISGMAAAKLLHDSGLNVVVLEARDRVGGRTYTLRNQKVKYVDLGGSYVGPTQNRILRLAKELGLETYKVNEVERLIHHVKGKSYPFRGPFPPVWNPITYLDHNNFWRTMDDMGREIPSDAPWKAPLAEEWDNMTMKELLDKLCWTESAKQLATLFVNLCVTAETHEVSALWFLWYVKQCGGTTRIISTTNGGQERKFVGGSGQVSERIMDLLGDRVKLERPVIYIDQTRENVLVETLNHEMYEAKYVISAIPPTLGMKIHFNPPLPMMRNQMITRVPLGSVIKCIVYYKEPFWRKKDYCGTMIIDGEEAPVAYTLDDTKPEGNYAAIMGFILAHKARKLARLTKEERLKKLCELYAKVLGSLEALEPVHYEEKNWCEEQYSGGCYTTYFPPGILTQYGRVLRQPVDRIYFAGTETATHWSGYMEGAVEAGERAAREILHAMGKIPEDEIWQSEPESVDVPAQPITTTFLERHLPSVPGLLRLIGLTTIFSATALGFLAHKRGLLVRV
# ASSAY PROTOCOL: Competitive inhibition of human recombinant MAOB using kynuramine substrate assessed as reduction in MAO-generated 4-hydroxyquinoline level by Lineweaver-Burk plot
PROPERTY MEASURED: pKi
Lab note — pKi values are minus log10 of concentrations in M.

Tell us which pKi value is on record for Brc1cccc(COc2ccc3c(c2)OCCO3)c1
7.39

* * *

# MEASURED TARGET: Amine oxidase [flavin-containing] A (Homo sapiens, UniProt P21397)
# Sequence (P21397 whole entry): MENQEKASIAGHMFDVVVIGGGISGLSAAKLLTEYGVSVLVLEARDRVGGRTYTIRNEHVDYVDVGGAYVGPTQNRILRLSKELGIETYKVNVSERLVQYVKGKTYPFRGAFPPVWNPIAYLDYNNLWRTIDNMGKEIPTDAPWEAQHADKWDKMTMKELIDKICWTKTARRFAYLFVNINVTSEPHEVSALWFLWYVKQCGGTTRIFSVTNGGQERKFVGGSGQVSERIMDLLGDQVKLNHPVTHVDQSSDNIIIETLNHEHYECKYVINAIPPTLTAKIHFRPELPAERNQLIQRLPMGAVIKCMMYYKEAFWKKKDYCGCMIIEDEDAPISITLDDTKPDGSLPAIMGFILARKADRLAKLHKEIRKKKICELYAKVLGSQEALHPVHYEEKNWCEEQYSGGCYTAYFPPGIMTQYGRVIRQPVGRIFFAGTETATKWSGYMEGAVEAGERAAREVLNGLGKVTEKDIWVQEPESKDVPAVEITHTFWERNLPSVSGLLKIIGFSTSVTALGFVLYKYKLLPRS
# ASSAY PROTOCOL: Inhibition of human recombinant MAOA using kynuramine substrate assessed as reduction in MAO-generated 4-hydroxyquinoline level by fluorescence spectrophotometry
pIC50: −log10 of the molar value.
PROPERTY MEASURED: pIC50

               structure_notation                           measured_target  value
0  c1ccc(OCCOc2ccc3c(c2)OCCO3)cc1  Amine oxidase [flavin-containing] A (Homo sapiens, UniProt P21397)   4.16

I = c1ccc(CCCOc2ccc3c(c2)OCO3)cc1
II = Brc1cccc(COc2ccc3c(c2)OCO3)c1
// compare measured pIC50, left I , right II , return larger In your reply, give the label of the chosen option.
II

* * *

# MEASURED TARGET: Amine oxidase [flavin-containing] B (Homo sapiens, UniProt P27338)
# ASSAY PROTOCOL: Inhibition of human recombinant MAOB using kynuramine substrate assessed as reduction in MAO-generated 4-hydroxyquinoline level by fluorescence spectrophotometry
PROPERTY MEASURED: IC50 (nM)

               structure_notation  value_unit  value
0   c1ccc(CCCOc2ccc3c(c2)OCO3)cc1          nM   7290
1    c1ccc(CCOc2ccc3c(c2)OCO3)cc1          nM   3310
2  Brc1cccc(COc2ccc3c(c2)OCCO3)c1          nM     45

I = c1ccc(OCCOc2ccc3c(c2)OCCO3)cc1
II = Brc1ccc(OCCOc2ccc3c(c2)OCO3)cc1
III = c1ccc(CCOc2ccc3c(c2)OCCO3)cc1
IV = Clc1ccc(OCCOc2ccc3c(c2)OCO3)cc1
# desc sort on IC50 across 4 compounds Provide your answer as the labels ordered per the instruction.
II, IV, I, III
(II: 7070 nM, IV: 1690 nM, I: 109 nM, III: 48 nM)

a = c1ccc(OCCOc2ccc3c(c2)OCO3)cc1
b = c1ccc(COc2ccc3c(c2)OCCO3)cc1
c = Clc1cccc(COc2ccc3c(c2)OCO3)c1
d = c1ccc(COc2ccc3c(c2)OCO3)cc1
Sort ascending by IC50. Provide your answer as the labels ordered per the instruction.
b, c, d, a

a = Brc1ccc(OCCOc2ccc3c(c2)OCCO3)cc1
b = Brc1cccc(COc2ccc3c(c2)OCO3)c1
// compare measured IC50, left a , right b , return larger In your reply, give the label of the chosen option.
a
(a: 941 nM, b: 164 nM)

a = c1ccc(CCCOc2ccc3c(c2)OCCO3)cc1
b = Clc1cccc(COc2ccc3c(c2)OCCO3)c1
Would you kindly point out which of a and b has the smaller IC50 figure? In your reply, give the label of the chosen option.
b
(b: 57 nM, a: 947 nM)

* * *

# MEASURED TARGET: Amine oxidase [flavin-containing] A (Homo sapiens, UniProt P21397)
# Sequence (P21397 whole entry): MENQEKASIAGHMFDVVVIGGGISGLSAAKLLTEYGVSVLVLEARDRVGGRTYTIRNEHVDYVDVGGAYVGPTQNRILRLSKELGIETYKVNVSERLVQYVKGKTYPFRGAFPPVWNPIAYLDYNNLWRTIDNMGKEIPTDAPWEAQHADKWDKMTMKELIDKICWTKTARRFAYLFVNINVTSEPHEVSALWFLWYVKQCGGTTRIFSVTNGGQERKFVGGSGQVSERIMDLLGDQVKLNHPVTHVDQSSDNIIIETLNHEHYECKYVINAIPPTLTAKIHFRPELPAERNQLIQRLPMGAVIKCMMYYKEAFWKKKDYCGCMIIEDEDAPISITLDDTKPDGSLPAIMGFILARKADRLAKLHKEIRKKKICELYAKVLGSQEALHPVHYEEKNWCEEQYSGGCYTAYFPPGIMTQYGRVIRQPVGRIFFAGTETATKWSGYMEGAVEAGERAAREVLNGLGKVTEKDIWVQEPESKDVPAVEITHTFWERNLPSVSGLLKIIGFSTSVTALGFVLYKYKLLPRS
# ASSAY PROTOCOL: Inhibition of human recombinant MAOA using kynuramine substrate assessed as reduction in MAO-generated 4-hydroxyquinoline level by fluorescence spectrophotometry
pIC50: −log10 of the molar value.
PROPERTY MEASURED: pIC50

In [3]: df
Out[3]:
               structure_notation  value
0   Clc1cccc(COc2ccc3c(c2)OCO3)c1   4.29
1  Clc1cccc(COc2ccc3c(c2)OCCO3)c1   4.88
2    c1ccc(CCOc2ccc3c(c2)OCO3)cc1   4.06
3   c1ccc(CCOc2ccc3c(c2)OCCO3)cc1   4.56

a = c1ccc(COc2ccc3c(c2)OCCO3)cc1
b = Brc1cccc(COc2ccc3c(c2)OCCO3)c1
c = c1ccc(CCCOc2ccc3c(c2)OCCO3)cc1
# desc sort on pIC50 across 3 molecules Provide your answer as the labels ordered per the instruction.
b, a, c

* * *

Reported Ratio IC50 values follow for various compounds
# Species on record: Homo sapiens
# ASSAY PROTOCOL: Selectivity index, ratio of IC50 for human recombinant MAOA to IC50 for human recombinant MAOB

                structure_notation  property_measured  value
0  Brc1ccc(OCCOc2ccc3c(c2)OCO3)cc1         Ratio IC50   > 14

Tell us which Ratio IC50 value is on record for c1ccc(COc2ccc3c(c2)OCO3)cc1
> 195

Tell us which Ratio IC50 value is on record for c1ccc(OCCOc2ccc3c(c2)OCO3)cc1
> 88

* * *

# Organism: Homo sapiens
# ASSAY PROTOCOL: Selectivity index, ratio of IC50 for human recombinant MAOA to IC50 for human recombinant MAOB
Reported Ratio IC50 values follow for various molecules

Study these solved cases before continuing.
>>> df
                 structure_notation  value
0  Clc1ccc(OCCOc2ccc3c(c2)OCCO3)cc1  > 287
1   Clc1ccc(OCCOc2ccc3c(c2)OCO3)cc1   > 59

Proceeding to the next molecule to report its Ratio IC50.
Tell us which Ratio IC50 value is on record for Brc1ccc(OCCOc2ccc3c(c2)OCCO3)cc1
> 106
